Collected growth inhibition values appear next to each entry.
ASSAY_REMARKS: NCI Yeast Anticancer Drug Screen. Data for the bub3 strain (AID 167)
MEASUREMENT_CONTEXT: S. cerevisiae bub3 mutant strain, at 50.0 µM, active compounds read high
This is part of a sample that, as a whole, favours compounds with a hit. Of some 79,000 tested, about 15% had one in any assay.
Report the value in % with no unit label.

Solved cases below.
C[C@]12CC[C@H](O)C[C@@H]1CC[C@@H]1[C@@H]2CC[C@]2(C)C(=O)/C(=C/O)C[C@@H]12 = 95.7
Cc1cccc(NC(=O)C(=O)C2C(=O)NC(=O)NC2=O)c1C = 20.2
CC(=O)OCC1(N2CCCC2)CCCCC1 = 23.6
O=P(O)(Oc1ccccc1)Oc1ccccc1.[Ag] = 92.8

Please look at the following molecule next.
Problem: Query: growth inhibition; subject: CCN(CC)CC(=O)c1ccccc1
Solution: 3.15

---

ASSAY_REMARKS: NCI Yeast Anticancer Drug Screen. Data for the mlh1 rad18 strain (AID 175)
MEASUREMENT_CONTEXT: S. cerevisiae mlh1 rad18 strain growth inhibition; at 5.0 µM (retest, dose inferred, filed as 0.5)
The panel holds about 79,000 compounds, 15% with a hit somewhere; the sample as a whole holds those more often. Active and inactive are the calls of the source. Rule as the data show it: active = growth inhibition above about 70%; inactive = the rest.
The categories you may choose from are true (1) (active), false (0) (inactive)

The examples below pair each entry with its known result.
Nc1nc(N)c(-c2ccc(Cl)c(Cl)c2)c(CCc2ccc(CNC(=O)c3cccc(S(=O)(=O)F)c3)cc2)n1 = false (0)
CC(Cl)CN1COc2c3c(c4ccccc4c2C1)CN(CC(C)Cl)CO3 (centres undefined) = false (0)
CCC1CN1P(=O)(Oc1ccccc1)N1CC1CC (centres undefined) = false (0)
N#CC(C#N)=Cc1ccc(Cl)o1 = false (0)
CCC[CH2][Sn]([CH2]CCC)[S]CC(N)C(=O)O (centres undefined) = false (0)
C(=P(c1ccccc1)(c1ccccc1)c1ccccc1)[P+](c1ccccc1)(c1ccccc1)c1ccccc1.[Cl][Fe]([Cl])([Cl])[Br] = true (1)
COc1ccc(CN2CCCN(Cc3ccc(OC)cc3OC)C2c2ccc(N(CCCl)CCCl)cc2)c(OC)c1 = false (0)
C[SH+]c1ccccc1N=Cc1ccccn1.C[SH+]c1ccccc1N=Cc1ccccn1.[Ni+2].[O-][Cl+3]([O-])([O-])[O-] = false (0)

Moving on to the next molecule.
Problem: Test call for this molecule, please: c1ccc([As+](c2ccccc2)(c2ccccc2)c2cccc3ccccc23)cc1
Solution: true (1)

---

ASSAY_REMARKS: NCI Yeast Anticancer Drug Screen. Data for the cln2 rad14 strain (AID 165);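 note: 0% = growth equal to vehicle treated cultures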
MEASUREMENT_CONTEXT: S. cerevisiae cln2 rad14 strain, at 50.0 µM (retest, dose inferred, filed as 5.0), active compounds read high
Procedure: Growth inhibition of yeast strains with defined genetic alterations is measured as a screen for potential anti-cancer activity. Selected strains with alterations in DNA damage repair or cell cycle control were exposed to compounds and growth inhibition was measured relative to vehicle treated controls. The strain used in this assay is cln2 rad14
About 79,000 compounds went through this panel and 15% of them were active in at least one assay; those are over-represented in the sample as a whole.
Measured growth inhibition of individual entries
Provide the reading as a plain figure in %.

These solved cases illustrate the format of a correct answer.
CC1(CO)C(O)CCC2(C)C1CCC1CC3CC12CCC3(O)CO (centres undefined) = 68
CC[C@@]1(O)C(=O)OCc2c1cc1n(c2=O)Cc2cc3c(OC)cccc3nc2-1 = 74
O=C(O)C(O)(c1ccc(-c2ccccc2)cc1)c1ccc(-c2ccccc2)cc1 = 93

Problem: Entry under review: COC(=O)[CH2][Sn]([CH2]C(=O)OC)([c]1ccccc1)[c]1ccccc1 . Reported growth inhibition?
Solution: 99

Problem: Look up growth inhibition for this compound: CCCCOOC(=O)c1ccccc1C(=O)OOCCCC
Solution: 99

Problem: Entry under review: CCc1c[c]([Hg][Cl])c(CC)c(CC)c1CC . Reported growth inhibition?
Solution: 90
